Biological target: T1, Pex13, P80667
T1 sequence (P80667 295-386, looked up): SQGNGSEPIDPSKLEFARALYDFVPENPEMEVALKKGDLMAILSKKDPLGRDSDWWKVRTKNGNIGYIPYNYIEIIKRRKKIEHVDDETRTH
Test: SPOT array
Settings: median of control spots 1341
Exam item: assign True to entries whose SPOT intensity is below 7 and False to entries at or above 7. Note that a value of exactly 7 receives False.

Would you please look over these solved cases?
Input line: I'd appreciate it if you could check whether FVLRYYILIPHEQWD has SPOT intensity smaller than 7.
Output line: False

Input line: I'd appreciate it if you could check whether LTRRFPFLFPFDTRM has SPOT intensity smaller than 7.
Output line: False

Input line: Does this binder meet the criterion SPOT intensity < 7? AIPPPVPNRPGGTTN
Output line: False

Input line: Answer whether the binder EEEEEHPPLPARRKS has SPOT intensity strictly less than 7
Output line: False

Input line: For this binder, is SPOT intensity lower than 7? RSVKRPRRAPRPVVS
Output line: True

Input line: Please let me know if YYNRQELALPKRMSS shows SPOT intensity below 7.
Output line: False

Input line: Is the reported SPOT intensity for ALFRLSFFFPLDPAY strictly below 7?
Output line: False

Input line: Threshold test, SPOT intensity < 7: FFRRSELYLPNSSKA
Output line: False

Input line: Below 7 on SPOT intensity? Entry VNFRRIPTGPDSPPT
Output line: True

Input line: Confirm or reject: SPOT intensity of RLSRLLLSLPPESFT lies strictly below 7
Output line: False

Shift focus to the following entry.
Input line: Determine if TKRKRPARLIFYDSK shows SPOT intensity strictly lower than 7.
Output line: True
